Taken from patent US20250341517A1.

# target_or_test_system: T1, Anti-hCG antibody(m)
# T1 construct: also called mouse IgG (hCG)
# assay_overview: labelled peptide on antibody immobilised on microplate; antigen hCG
Ends that are not written are not given here. FAM = carboxyfluorescein (FAM) fluorescent label
readout_type: fluorescence intensity in solution (S) before antigen binding

* {FAM}-VYYCFQGSHVPFTK (Synthetic 14-mer homologous to the FR3 or FR4 region of the light chain; also called L2 switching peptide; second peptide compound L2) [L2 peptide] | 1690
* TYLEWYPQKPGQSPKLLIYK (not fully specified (N-terminus), Synthetic 20-mer homologous to the FR2 region of the light chain; The label differs between experiments; also called L1 switching peptide; first peptide compound L1) [L1 peptide] | 1250

Tell me its fluorescence intensity in solution (S) before antigen binding given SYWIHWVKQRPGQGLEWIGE (not fully specified (N-terminus), Synthetic 20-mer homologous to the FR2 region of the heavy chain; The fluorescent label differs between experiments; also called H1 switching peptide; third peptide compound H1) [H1 peptide] as the entry.
1280

Tell me its fluorescence intensity in solution (S) before antigen binding given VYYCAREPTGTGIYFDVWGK (not fully specified (N-terminus), Synthetic 20-mer homologous to the FR3 or FR4 region of the heavy chain; The label differs between experiments; also called H2 switching peptide; fourth peptide compound H2) [H2 peptide] as the entry.
1650
